Where a SMILES comes first, the peptide text is derived from it.
System: Motilin receptor (Oryctolagus cuniculus, UniProt A5A4K8) | Read-out: IC50
Sequence (A5A4K8 whole entry): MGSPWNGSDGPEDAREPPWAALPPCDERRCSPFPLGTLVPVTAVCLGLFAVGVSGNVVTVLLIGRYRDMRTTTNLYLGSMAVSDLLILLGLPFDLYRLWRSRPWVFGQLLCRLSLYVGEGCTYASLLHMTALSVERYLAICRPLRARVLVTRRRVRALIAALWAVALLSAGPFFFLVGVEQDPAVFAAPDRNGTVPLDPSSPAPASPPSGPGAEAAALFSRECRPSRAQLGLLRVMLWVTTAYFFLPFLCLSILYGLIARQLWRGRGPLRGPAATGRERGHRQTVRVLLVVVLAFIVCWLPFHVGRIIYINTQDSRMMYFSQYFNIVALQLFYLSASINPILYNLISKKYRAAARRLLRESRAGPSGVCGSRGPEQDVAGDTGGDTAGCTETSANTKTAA
One number for each entry, in nM.

Here's what some known entries look like.
[[record]]
compound = "CC(C)[C@@H](C(=O)N[C@@H](Cc1ccc(O)c(C(C)(C)C)c1)C(N)=O)N(C)C(=O)[C@@H](N)Cc1ccccc1 (HELM PEPTIDE1{F.[meV].[CC(C)(C)c1cc(C[C@H](N[*:1])C(=O)[*:2])ccc1O].[am]}$$$$V2.0)"
target = "Motilin receptor (Oryctolagus cuniculus, UniProt A5A4K8)"
test_readout = "IC50"
measurement_units = "nM"
data_value = 1.1

[[record]]
compound = "CC(C)[C@H](NC(=O)[C@@H](N)Cc1ccccc1)C(=O)N(C)[C@@H](Cc1ccc(O)c(C(C)(C)C)c1)C(N)=O (HELM PEPTIDE1{F.V.[CN([C@@H](Cc1ccc(O)c(C(C)(C)C)c1)C(=O)[*:2])[*:1]].[am]}$$$$V2.0)"
target = "Motilin receptor (Oryctolagus cuniculus, UniProt A5A4K8)"
test_readout = "IC50"
measurement_units = "nM"
data_value = 24

[[record]]
compound = "CC(C)(C)c1cc(C[C@H](NC(=O)[C@H](Cc2ccccc2)NC(=O)[C@@H](N)Cc2ccccc2)C(N)=O)ccc1O (HELM PEPTIDE1{F.F.[CC(C)(C)c1cc(C[C@H](N[*:1])C(=O)[*:2])ccc1O].[am]}$$$$V2.0)"
target = "Motilin receptor (Oryctolagus cuniculus, UniProt A5A4K8)"
test_readout = "IC50"
measurement_units = "nM"
data_value = 6

[[record]]
compound = "CC(C)[C@@H](C(=O)N(C)[C@@H](Cc1ccc(O)c(C(C)(C)C)c1)C(N)=O)N(C)C(=O)[C@@H](N)Cc1ccccc1 (HELM PEPTIDE1{F.[meV].[CN([C@@H](Cc1ccc(O)c(C(C)(C)C)c1)C(=O)[*:2])[*:1]].[am]}$$$$V2.0)"
target = "Motilin receptor (Oryctolagus cuniculus, UniProt A5A4K8)"
test_readout = "IC50"
measurement_units = "nM"
data_value = 4.3


Answer with reported IC50 of CC(C)C[C@H](NC(=O)[C@@H](N)Cc1ccccc1)C(=O)N[C@@H](Cc1ccc(O)c(C(C)(C)C)c1)C(N)=O (HELM PEPTIDE1{F.L.[CC(C)(C)c1cc(C[C@H](N[*:1])C(=O)[*:2])ccc1O].[am]}$$$$V2.0)
27
